- target.or.system: Phosphatidylinositol 4,5-bisphosphate 3-kinase catalytic subunit delta isoform (Homo sapiens, UniProt O00329)
- Sequence (O00329 whole entry, canonical isoform): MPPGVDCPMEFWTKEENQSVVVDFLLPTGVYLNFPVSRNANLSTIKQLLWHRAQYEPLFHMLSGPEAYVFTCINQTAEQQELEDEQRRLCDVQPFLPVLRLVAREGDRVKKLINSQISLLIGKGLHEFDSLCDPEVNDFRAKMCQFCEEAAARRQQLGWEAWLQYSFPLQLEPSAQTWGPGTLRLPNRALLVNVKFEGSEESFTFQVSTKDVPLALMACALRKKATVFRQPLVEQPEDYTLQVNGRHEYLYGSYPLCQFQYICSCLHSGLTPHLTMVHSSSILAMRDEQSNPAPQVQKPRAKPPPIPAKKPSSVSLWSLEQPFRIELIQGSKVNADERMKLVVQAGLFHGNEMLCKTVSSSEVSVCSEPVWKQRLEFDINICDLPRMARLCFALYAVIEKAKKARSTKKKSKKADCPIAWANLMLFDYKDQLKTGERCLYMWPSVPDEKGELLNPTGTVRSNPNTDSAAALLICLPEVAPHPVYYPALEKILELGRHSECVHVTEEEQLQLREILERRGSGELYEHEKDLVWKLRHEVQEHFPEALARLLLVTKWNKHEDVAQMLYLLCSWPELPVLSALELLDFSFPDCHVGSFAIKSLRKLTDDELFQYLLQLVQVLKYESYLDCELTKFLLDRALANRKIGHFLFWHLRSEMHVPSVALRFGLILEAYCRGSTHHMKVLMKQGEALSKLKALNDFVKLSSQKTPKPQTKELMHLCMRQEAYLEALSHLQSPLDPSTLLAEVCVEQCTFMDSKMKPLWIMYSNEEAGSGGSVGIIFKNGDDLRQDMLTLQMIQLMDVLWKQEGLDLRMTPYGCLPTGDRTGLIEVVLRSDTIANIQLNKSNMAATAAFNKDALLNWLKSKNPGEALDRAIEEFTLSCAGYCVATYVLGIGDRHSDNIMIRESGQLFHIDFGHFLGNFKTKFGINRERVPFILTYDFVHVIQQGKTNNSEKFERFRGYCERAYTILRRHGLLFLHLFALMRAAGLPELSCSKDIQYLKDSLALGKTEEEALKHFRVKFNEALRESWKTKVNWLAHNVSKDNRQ
- test.summary: Inhibition of human recombinant PI3Kdelta assessed as PIP3 production by AlphaScreen assay
recorded.metric: pIC50
The scale used: pIC50 is minus the common logarithm of the concentration in molar units.

In: Query: pIC50; subject: C[C@@H](Oc1ccccc1)c1cc(C(=O)N(C)CCO)cn2c(=O)cc(N3CCOCC3)nc12
Out: 6.40

---

- Tested on: Hepatocyte
- test.summary: Intrinsic clearance in human hepatocytes at 2 uM by LCMS analysis
- Type: ADME, cell-based
recorded.metric: Intrinsic clearance (CLint) (µL/min)
Your answer is read as µL/min, so omit the unit and give the number.

[
  {
    "molecule": "Cc1cc([C@@H](C)Nc2ccccc2C(=O)NO)c2nc(N3CCOCC3)cc(=O)n2c1",
    "units": "µL/min",
    "Intrinsic clearance (CLint)": 30.2
  },
  {
    "molecule": "Cc1cc(C(C)Nc2ccccc2)c2nc(N3CCOCC3)cc(=O)n2c1 (racemic)",
    "units": "µL/min",
    "Intrinsic clearance (CLint)": 20
  },
  {
    "molecule": "Cc1cc(C(C)Nc2cc(Cl)ccc2C(=O)O)c2nc(N3CCOCC3)cc(=O)n2c1 (racemic)",
    "units": "µL/min",
    "Intrinsic clearance (CLint)": 11.9
  }
]

In: Query: Intrinsic clearance (CLint); subject: Cc1cc([C@@H](C)Nc2ccccc2C(=O)NS(C)(=O)=O)c2nc(N3CCOCC3)cc(=O)n2c1
Out: 15

In: Also need CC(Nc1ccccc1)c1cc(C(=O)N(C)C)cn2c(=O)cc(N3CCOCC3)nc12 (racemic) , thanks.
Out: 4.3

In: Also need Cc1cc(C(C)Nc2ccccc2-c2nnn[nH]2)c2nc(N3CCOCC3)cc(=O)n2c1 (racemic) , thanks.
Out: 18.1

In: Also need Cc1cc([C@@H](C)Nc2ccccc2C(=O)O)c2nc(N3CCOCC3)cc(=O)n2c1 , thanks.
Out: 17.5

---

- test.summary: Half life in iv dosed healthy volunteers plasma
- Type: ADME, organism-based
- experimental.conditions: human
recorded.metric: half-life (min)
Your answer is read as min, so omit the unit and give the number.

In: Query: half-life; subject: Cc1cc([C@@H](C)Nc2ccccc2C(=O)O)c2nc(N3CCOCC3)cc(=O)n2c1
Out: 5

---

- test.summary: Lipophilicity, log D of the compound at pH 7.4 by HPLC method
- Type: physicochemical
- experimental.conditions: buffer
recorded.metric: logD
Number only, please.

These recorded examples may help you get a feel for the data.
[
  {
    "molecule": "COc1cccc(OC(C)c2cc(C(=O)N(C)CCO)cn3c(=O)cc(N4CCOCC4)nc23)c1 (racemic)",
    "recorded.metric": "logD",
    "recorded.value": 2.3
  },
  {
    "molecule": "CC(Nc1ccccc1)c1cc(C(=O)N(C)C)cn2c(=O)cc(N3CCOCC3)nc12 (racemic)",
    "recorded.metric": "logD",
    "recorded.value": 2.7
  }
]

In: Query: logD; subject: Cc1cccc(OC(C)c2cc(C(=O)N(C)CCO)cn3c(=O)cc(N4CCOCC4)nc23)c1 (racemic)
Out: 2.8

In: Also need Cc1cc(C(C)Nc2ccccc2S(=O)(=O)O)c2nc(N3CCOCC3)cc(=O)n2c1 (racemic) , thanks.
Out: 0.3
